test: protein stability index of a GFP-peptide fusion (yeast GPS) (PSI 1-4); higher = more stable; sorted into four equal gates, so the index is relative within each strain; conditions: pdr5∆
measured.attribute: protein stability index

| sequence.string | value.observed |
| --- | --- |
| EELLAQYESQAPDGSAS [SWP82] | 2.95 |
| LEPFLLMLEDTDGDSIL [BRR2] | 3.06 |
| ADDEKSDEEEVTEMSNN [BRR2] | 3.02 |
| MARGPKKHLKRLAAPHH [RPS4A] | 3 |
| DNVNSTTGSIFEKDLMA [BRN1] | 3.01 |

----------
test: protein stability index of a GFP-peptide fusion (yeast GPS) (PSI 1-4); higher = more stable; sorted into four equal gates, so the index is relative within each strain; conditions: pdr5∆
Reported protein stability index values follow for various sequences

| sequence.string | protein stability index |
| --- | --- |
| SPSEFVDVAIPCNNRGK [RPS0A] | 1.97 |
| IYRVRVRRGNRKRPVPK [RPL15A] | 2.86 |
| TTDMISVLYQLSTSAFM [YML031W/NDC1] | 1.64 |
| LTDKDAFETHYRRLFAK [CDC53] | 3.19 |
